Data origin: ChEMBL document CHEMBL6182871

As an illustration, consider measured IC50 for compounds on Replicase polyprotein 1ab (Severe acute respiratory syndrome coronavirus 2).
Observed property: IC50

INSERT INTO assay_data (query_smiles, result) VALUES
  ('O=C(N/N=C/c1cc([N+](=O)[O-])ccc1Cl)c1ccc(CSc2cccc3cccnc23)cc1', '280 nM'),
  ('O=C(N/N=C/c1cc2ccncc2[nH]1)c1ccc(CSc2cccc3cccnc23)cc1', '> 10000 nM'),
  ('O=C(N/N=C/c1cc2c(cc1[N+](=O)[O-])OCO2)c1ccc(CSc2cccc3cccnc23)cc1', '430 nM'),
  ('COc1cc(/C=N/NC(=O)c2ccc(CSc3cccc4cccnc34)cc2)ccc1O', '9190 nM'),
  ('O=C(N/N=C/c1ccc(F)cc1)c1ccc(CSc2cccc3cccnc23)cc1', '2570 nM'),
  ('O=C(N/N=C/c1cc(F)c(F)cc1O)c1ccc(CSc2cccc3cccnc23)cc1', '2340 nM'),
  ('O=C(N/N=C/c1cccc2ccncc12)c1ccc(CSc2cccc3cccnc23)cc1', '4330 nM'),
  ('O=C(N/N=C/c1c(O)ccc2ccccc12)c1ccc(CSc2cccc3cccnc23)cc1', '3920 nM'),
  ('O=C(N/N=C/c1cc(O)c(Br)c(O)c1)c1ccc(CSc2cccc3cccnc23)cc1', '2060 nM');

---

pIC50: −log10 of the molar value.
As an illustration, consider measured pIC50 for molecules on Replicase polyprotein 1ab (Severe acute respiratory syndrome coronavirus 2).
Observed property: pIC50

INSERT INTO assay_data (query_smiles, subject_of_test, value_qualifier, number) VALUES
  ('CC(C)NC(=O)c1ccc(/C=N/NC(=O)c2ccc(CSc3cccc4cccnc34)cc2)cc1', 'Replicase polyprotein 1ab (Severe acute respiratory syndrome coronavirus 2)', '=', 6.03),
  ('O=C(N/N=C/c1cc([N+](=O)[O-])ccc1Cl)c1ccc(COc2cccc3ccccc23)cc1', 'Replicase polyprotein 1ab (Severe acute respiratory syndrome coronavirus 2)', '<', 5.00),
  ('O=C(N/N=C/c1ccc(F)cc1O)c1ccc(CSc2cccc3cccnc23)cc1', 'Replicase polyprotein 1ab (Severe acute respiratory syndrome coronavirus 2)', '=', 5.57),
  ('O=C(N/N=C/c1ccc(Br)o1)c1ccc(CSc2cccc3cccnc23)cc1', 'Replicase polyprotein 1ab (Severe acute respiratory syndrome coronavirus 2)', '<', 5.00),
  ('Cn1cc(/C=N/NC(=O)c2ccc(CSc3cccc4cccnc34)cc2)cn1', 'Replicase polyprotein 1ab (Severe acute respiratory syndrome coronavirus 2)', '=', 4.57);

---

- Subject of test: Replicase polyprotein 1ab (Severe acute respiratory syndrome coronavirus 2, UniProt P0DTD1)
Observed property: IC50 (nM)

INSERT INTO measurements (query_smiles, observed_property, value_qualifier, number) VALUES
  ('O=C(N/N=C/c1c(Cl)nc(Cl)nc1Cl)c1ccc(CSc2cccc3cccnc23)cc1', 'IC50', '=', 2940),
  ('COc1ccc(/C=N/NC(=O)c2ccc(CSc3cccc4cccnc34)cc2)c(O)c1', 'IC50', '=', 5440),
  ('O=C(N/N=C/c1cc([N+](=O)[O-])ccc1Cl)c1ccc(CSc2ccccc2Br)cc1', 'IC50', '>', 10000),
  ('O=C(N/N=C/c1ccc(F)nc1)c1ccc(CSc2cccc3cccnc23)cc1', 'IC50', '=', 660),
  ('C/C(=N\NC(=O)c1ccc(CSc2cccc3cccnc23)cc1)c1ccc(F)nc1', 'IC50', '>', 10000),
  ('O=C(N/N=C/c1cccc(F)c1O)c1ccc(CSc2cccc3cccnc23)cc1', 'IC50', '=', 2980),
  ('O=C(N/N=C/c1cc([N+](=O)[O-])ccc1Cl)c1ccc(CSc2ccnc3ccccc23)cc1', 'IC50', '=', 760);

---

- Subject of test: Replicase polyprotein 1ab (Severe acute respiratory syndrome coronavirus 2, UniProt P0DTD1)
Observed property: Kd (µM)

INSERT INTO assay_data (query_smiles, number) VALUES
  ('Cn1cc(/C=N/NC(=O)c2ccc(CSc3cccc4cccnc34)cc2)cn1', 46.1);

---

- Subject of test: Replicase polyprotein 1ab (Severe acute respiratory syndrome coronavirus 2, UniProt P0DTD1)
Observed property: IC50

INSERT INTO assay_data (query_smiles, observed_property, result) VALUES
  ('COc1ccc(/C=N/NC(=O)c2ccc(CSc3cccc4cccnc34)cc2)cc1OC', 'IC50', '4.97 µM'),
  ('O=C(N/N=C/c1c(Cl)ccnc1Cl)c1ccc(CSc2cccc3cccnc23)cc1', 'IC50', '0.48 µM'),
  ('O=C(N/N=C/c1cc([N+](=O)[O-])ccc1Cl)c1ccc(CSc2cccc3ccccc23)cc1', 'IC50', '> 10 µM'),
  ('COc1ccc(/C=N/NC(=O)c2ccc(CSc3cccc4cccnc34)cc2)cc1', 'IC50', '0.96 µM'),
  ('COc1cc(F)ccc1/C=N/NC(=O)c1ccc(CSc2cccc3cccnc23)cc1', 'IC50', '2.85 µM'),
  ('CSc1nnc(SCc2ccc(C(=O)N/N=C/c3cc([N+](=O)[O-])ccc3Cl)cc2)s1', 'IC50', '> 10 µM'),
  ('O=C(N/N=C/c1ccc(Cl)nc1)c1ccc(CSc2cccc3cccnc23)cc1', 'IC50', '5.1 µM'),
  ('O=C(N/N=C/c1ncccn1)c1ccc(CSc2cccc3cccnc23)cc1', 'IC50', '> 10 µM'),
  ('O=C(N/N=C/c1cc([N+](=O)[O-])ccc1Cl)c1ccc(CNc2cccc3ccccc23)cc1', 'IC50', '> 10 µM');
